The following variants are shown together with reported protein stability index values.
B1: ZC3H15 (parent)
chain: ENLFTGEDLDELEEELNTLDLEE

- Variants of: B1
- experimentSummary: protein stability index of a GFP-peptide fusion (GPS, HEK-293T) (PSI 1-6); higher = more stable;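 also: lentivirally expressed fusions sorted by FACS into six bins by GFP to DsRed ratio, PSI derived from sequencing read proportions per bin multiplied by bin number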
- conditionsUsed: c terminus: native
valueType: protein stability index

>>> reportedvalue("L9T")
4
>>> reportedvalue("G6I")
4.2
>>> reportedvalue("E23Y")
5.58
>>> reportedvalue("F4A")
4.68
>>> reportedvalue("T5F")
4.19
>>> reportedvalue("T5Y")
4.25
>>> reportedvalue("E15L")
3.29
>>> reportedvalue("D20E")
4.52
>>> reportedvalue("F4G")
4.83
>>> reportedvalue("L21I")
2.25
>>> reportedvalue("E22L")
5.79
>>> reportedvalue("E22P")
5.17
>>> reportedvalue("G6M")
4.68
>>> reportedvalue("F4C")
5.49
>>> reportedvalue("E11A")
3.93
>>> reportedvalue("L3A")
4.1
>>> reportedvalue("L12G")
4.72
>>> reportedvalue("E22H")
5.94
>>> reportedvalue("E11P")
4.06
>>> reportedvalue("L19D")
5.17
>>> reportedvalue("F4Y")
4.6
>>> reportedvalue("L3M")
5.09
>>> reportedvalue("L19T")
4.7
>>> reportedvalue("E14Y")
4.33
>>> reportedvalue("D10H")
4.89
>>> reportedvalue("E13K")
4
>>> reportedvalue("E1C")
3.8
>>> reportedvalue("E13S")
5.36
>>> reportedvalue("T5M")
4.69
>>> reportedvalue("N2C")
4.28
>>> reportedvalue("T5E")
4.65
>>> reportedvalue("N2S")
4.6
>>> reportedvalue("L12D")
5.07
>>> reportedvalue("N2Q")
4.71
>>> reportedvalue("E7Y")
4.23
>>> reportedvalue("N17I")
3.3
>>> reportedvalue("L12M")
3.43
>>> reportedvalue("D8I")
4.13
>>> reportedvalue("N17Y")
3.79
>>> reportedvalue("L12F")
3.84
>>> reportedvalue("E14C")
3.99
>>> reportedvalue("E1N")
4.12
>>> reportedvalue("G6S")
4.88
>>> reportedvalue("L21V")
2.59
>>> reportedvalue("E22S")
5.84
>>> reportedvalue("L16N")
4.12
>>> reportedvalue("E14I")
3.3
>>> reportedvalue("E1F")
3.23
>>> reportedvalue("E1K")
3.59
>>> reportedvalue("D10V")
5.1
>>> reportedvalue("N17H")
3.71
>>> reportedvalue("L16K")
3.62
>>> reportedvalue("E7Q")
4.11
>>> reportedvalue("E13G")
3.77
>>> reportedvalue("F4P")
5.03
>>> reportedvalue("E1Q")
4.14
>>> reportedvalue("E7D")
4.93
>>> reportedvalue("T5V")
3.27
>>> reportedvalue("E23A")
5.96
>>> reportedvalue("D8K")
4.39
>>> reportedvalue("L21D")
4.99
>>> reportedvalue("L21N")
1.1
>>> reportedvalue("E14S")
4.85
>>> reportedvalue("E22C")
5.58
>>> reportedvalue("L16S")
3.82
>>> reportedvalue("N17R")
5.04
>>> reportedvalue("E13W")
3.48
>>> reportedvalue("E13Q")
5.06
>>> reportedvalue("L21T")
2.68
>>> reportedvalue("D8W")
4.09
>>> reportedvalue("G6F")
4.3
>>> reportedvalue("F4E")
4.31
>>> reportedvalue("L3H")
4.39

FYI, the data here is from the supplement of paper PMC10567573.
